From: patent US20250049929A1

Molecular target: SMARCA2 (Homo sapiens, UniProt P51531)
Construct: endogenous in cells; host or cells: RKO cells (CRL-2577, ATCC)
Sequence (P51531 whole entry): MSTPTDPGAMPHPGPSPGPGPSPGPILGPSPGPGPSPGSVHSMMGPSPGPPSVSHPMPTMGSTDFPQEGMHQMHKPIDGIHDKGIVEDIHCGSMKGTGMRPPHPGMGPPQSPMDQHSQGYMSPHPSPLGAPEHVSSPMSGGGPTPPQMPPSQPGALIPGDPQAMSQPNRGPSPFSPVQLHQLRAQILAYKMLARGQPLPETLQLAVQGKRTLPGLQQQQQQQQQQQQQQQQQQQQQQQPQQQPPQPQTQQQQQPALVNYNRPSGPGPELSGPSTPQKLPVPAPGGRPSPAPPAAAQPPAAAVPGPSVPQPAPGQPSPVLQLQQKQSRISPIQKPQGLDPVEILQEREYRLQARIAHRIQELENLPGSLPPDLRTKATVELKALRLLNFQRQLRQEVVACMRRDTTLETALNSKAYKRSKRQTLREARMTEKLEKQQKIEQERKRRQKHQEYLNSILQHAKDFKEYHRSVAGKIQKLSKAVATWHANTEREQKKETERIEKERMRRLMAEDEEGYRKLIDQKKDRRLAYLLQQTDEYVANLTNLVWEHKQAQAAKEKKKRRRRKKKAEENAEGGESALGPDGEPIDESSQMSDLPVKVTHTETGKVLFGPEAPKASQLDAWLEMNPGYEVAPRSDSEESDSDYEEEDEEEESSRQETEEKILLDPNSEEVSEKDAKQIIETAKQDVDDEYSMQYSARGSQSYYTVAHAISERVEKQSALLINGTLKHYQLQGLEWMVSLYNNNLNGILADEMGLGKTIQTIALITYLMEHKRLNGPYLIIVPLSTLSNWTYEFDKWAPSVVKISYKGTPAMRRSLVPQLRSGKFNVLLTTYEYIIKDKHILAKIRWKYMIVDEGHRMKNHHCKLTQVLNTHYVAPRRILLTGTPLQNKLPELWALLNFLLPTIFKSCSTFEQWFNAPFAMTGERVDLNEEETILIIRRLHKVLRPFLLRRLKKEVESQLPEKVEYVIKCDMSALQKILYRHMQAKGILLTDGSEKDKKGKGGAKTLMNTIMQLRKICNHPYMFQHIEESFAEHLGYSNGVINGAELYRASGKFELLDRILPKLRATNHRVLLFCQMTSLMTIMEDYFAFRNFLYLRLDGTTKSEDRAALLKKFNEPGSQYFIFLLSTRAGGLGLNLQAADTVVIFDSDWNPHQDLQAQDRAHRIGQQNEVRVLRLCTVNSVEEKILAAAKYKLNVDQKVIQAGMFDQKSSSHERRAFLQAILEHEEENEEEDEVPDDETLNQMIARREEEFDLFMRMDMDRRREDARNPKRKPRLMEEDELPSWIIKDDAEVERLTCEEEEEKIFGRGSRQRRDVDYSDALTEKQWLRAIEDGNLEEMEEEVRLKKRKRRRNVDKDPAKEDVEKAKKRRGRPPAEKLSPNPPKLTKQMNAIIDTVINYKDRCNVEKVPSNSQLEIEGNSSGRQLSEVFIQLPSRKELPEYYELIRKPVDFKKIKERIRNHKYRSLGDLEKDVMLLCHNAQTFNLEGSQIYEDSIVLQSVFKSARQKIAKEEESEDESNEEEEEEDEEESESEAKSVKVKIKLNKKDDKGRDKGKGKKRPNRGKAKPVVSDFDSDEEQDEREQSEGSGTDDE
Experiment: SMARCA2 degradation analysis by imaging in RKO cells (DC50 A2)
Type: cell-based
Conditions: tables 69, 70, 73, 76-78
experimental endpoint: DC50
A complete answer gives the number and then names the unit.

* Cc1ncsc1-c1ccc([C@H](COCCN2CCC(c3cc4c(cc3OCCN3CCN(C)CC3)n3c5cccc(Br)c5c(=O)nc3n4C3CCCC3)CC2)NC(=O)[C@@H]2C[C@@H](O)CN2C(=O)[C@@H](NC(=O)C2(F)CC2)C(C)(C)C)cc1 [Compound 42ab] | 21 nM

[in] Tell me the measured DC50 of Cc1ncsc1-c1ccc([C@H](CO[C@H](C)CN2CCC(c3ccc4c(c3)n(C3CCCC3)c3nc(=O)c5c(Br)cccc5n43)CC2)NC(=O)[C@@H]2C[C@@H](O)CN2C(=O)[C@@H](NC(=O)C2(N(C)C)CC2)C(C)(C)C)cc1 [Compound 42y] , please.
[out] 6 nM

* * *

# maps each entry to its log10 DC50
Target: SMARCA4 (Homo sapiens, UniProt P51532)
Construct: endogenous in cells; host or cells: RKO cells (CRL-2577, ATCC)
Sequence (P51532 whole entry): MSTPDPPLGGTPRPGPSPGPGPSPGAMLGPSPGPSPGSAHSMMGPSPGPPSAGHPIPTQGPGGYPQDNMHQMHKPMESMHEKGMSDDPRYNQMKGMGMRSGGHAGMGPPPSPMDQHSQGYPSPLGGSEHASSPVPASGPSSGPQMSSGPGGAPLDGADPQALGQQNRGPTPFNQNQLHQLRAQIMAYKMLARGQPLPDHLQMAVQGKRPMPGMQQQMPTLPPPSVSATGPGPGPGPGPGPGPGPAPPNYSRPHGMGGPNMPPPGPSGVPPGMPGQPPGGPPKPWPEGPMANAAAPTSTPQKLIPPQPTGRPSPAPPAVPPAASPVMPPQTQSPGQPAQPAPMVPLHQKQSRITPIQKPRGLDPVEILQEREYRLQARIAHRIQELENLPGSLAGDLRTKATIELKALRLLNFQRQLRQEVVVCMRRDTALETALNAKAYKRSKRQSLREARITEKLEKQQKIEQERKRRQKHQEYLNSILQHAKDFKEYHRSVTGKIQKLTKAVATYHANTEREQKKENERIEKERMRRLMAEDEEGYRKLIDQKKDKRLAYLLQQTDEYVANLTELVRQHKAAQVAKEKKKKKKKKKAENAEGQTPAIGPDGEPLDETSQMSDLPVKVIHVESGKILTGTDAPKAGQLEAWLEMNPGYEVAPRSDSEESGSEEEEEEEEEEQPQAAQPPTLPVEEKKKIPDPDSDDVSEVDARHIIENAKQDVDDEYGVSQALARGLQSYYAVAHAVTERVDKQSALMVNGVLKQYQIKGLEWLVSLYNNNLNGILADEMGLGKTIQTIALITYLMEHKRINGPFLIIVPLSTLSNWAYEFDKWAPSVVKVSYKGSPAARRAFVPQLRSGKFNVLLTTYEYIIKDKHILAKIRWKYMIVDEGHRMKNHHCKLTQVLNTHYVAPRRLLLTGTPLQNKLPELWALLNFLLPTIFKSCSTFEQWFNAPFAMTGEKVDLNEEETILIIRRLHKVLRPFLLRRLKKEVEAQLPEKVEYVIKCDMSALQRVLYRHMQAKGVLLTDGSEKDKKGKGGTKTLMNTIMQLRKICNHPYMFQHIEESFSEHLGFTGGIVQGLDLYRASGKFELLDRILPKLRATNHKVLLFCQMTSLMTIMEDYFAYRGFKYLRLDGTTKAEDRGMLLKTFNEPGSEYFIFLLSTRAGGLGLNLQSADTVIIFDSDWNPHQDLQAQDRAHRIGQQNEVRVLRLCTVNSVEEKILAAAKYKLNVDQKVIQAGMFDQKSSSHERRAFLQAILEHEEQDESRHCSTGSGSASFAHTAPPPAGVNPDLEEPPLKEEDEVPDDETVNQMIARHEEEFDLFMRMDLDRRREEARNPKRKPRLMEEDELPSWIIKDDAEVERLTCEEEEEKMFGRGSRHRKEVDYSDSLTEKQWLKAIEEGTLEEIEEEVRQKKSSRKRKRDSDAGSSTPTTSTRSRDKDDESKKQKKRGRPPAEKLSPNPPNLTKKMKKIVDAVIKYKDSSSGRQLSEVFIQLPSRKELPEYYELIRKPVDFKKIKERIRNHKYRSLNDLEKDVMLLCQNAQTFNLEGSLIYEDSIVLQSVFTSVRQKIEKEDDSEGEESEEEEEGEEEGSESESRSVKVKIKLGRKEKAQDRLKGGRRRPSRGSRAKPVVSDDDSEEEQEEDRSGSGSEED
Assay: SMARCA4 degradation analysis by imaging in RKO cells (DC50 A4)
Type: cell-based
Settings: tables 69, 70, 73, 76-78
Lab note - DC50 converted to log10 from values in nM.

Here's what some known entries look like.
- Cc1ncsc1-c1ccc([C@H](CCCCCN2CCC(c3ccc4c(c3)n(C3CCCC3)c3nc(=O)c5c(Br)cccc5n43)CC2)NC(=O)[C@@H]2C[C@@H](O)CN2C(=O)[C@@H](NC(=O)C2(F)CC2)C(C)(C)C2CC2)cc1 [Compound 42c]: 1.04
- Cc1ncsc1-c1ccc([C@H](COCCN2CCC(c3cc4c(cc3F)n3c5cccc(Br)c5c(=O)nc3n4C3CCCC3)CC2)NC(=O)[C@@H]2C[C@@H](O)CN2C(=O)[C@@H](NC(=O)C2(F)CC2)C(C)(C)C)cc1 [Compound 42av]: 2.21
- Cc1ncsc1-c1ccc([C@H](CCCCN(C)C2CCC(c3ccc4c(c3)n(C3CCCC3)c3nc(=O)c5c(Br)cccc5n43)CC2)NC(=O)[C@@H]2C[C@@H](O)CN2C(=O)[C@@H](NC(=O)C2(F)CC2)C(C)(C)C)cc1 (some centres unmarked) [Compound 42ax]: 1.46
- Cc1ncsc1-c1ccc([C@H](CCCN2CCC(c3ccc4c(c3)n(C3CCCC3)c3nc(=O)c5c(Br)cccc5n43)CC2)NC(=O)[C@@H]2C[C@@H](O)CN2C(=O)[C@@H](NC(=O)C2(N(C)C)CC2)C(C)(C)C)cc1 [Compound 42ah]: 1.23
- Cc1ncsc1-c1ccc([C@H](CCCN2CCC(c3ccc4c(c3)n(C3CCCC3)c3nc(=O)c5c(N)cccc5n43)CC2)NC(=O)[C@@H]2C[C@@H](O)CN2C(=O)[C@@H](NC(=O)C2(N3CCCC3)CC2)C(C)(C)C)cc1 [Compound 42bi]: 0.78

[in] Tell me the measured log10 DC50 of Cc1ncsc1-c1ccc([C@H](CC[C@@H](C)CCN2CCC(c3ccc4c(c3)n(C3CCCC3)c3nc(=O)c5c(Br)cccc5n43)CC2)NC(=O)[C@@H]2C[C@@H](O)CN2C(=O)[C@@H](NC(=O)C2(F)CC2)C(C)(C)C)cc1 [Compound 42d] , please.
[out] 0.85

[in] Tell me the measured log10 DC50 of Cc1ncsc1-c1ccc([C@H](CO[C@H](C)CN2CCC(c3cc4c(cc3OC[C@@H]3CCCO3)n3c5cccc(Br)c5c(=O)nc3n4C3CCCC3)CC2)NC(=O)[C@@H]2C[C@@H](O)CN2C(=O)[C@@H](NC(=O)C2(F)CC2)C23CC4CC(CC(C4)C2)C3)cc1 [Compound 42an] , please.
[out] 0.85

* * *

# maps each entry to its DC50
Target: SMARCA2 (Homo sapiens, UniProt P51531)
Construct: endogenous in cells; host or cells: RKO cells (CRL-2577, ATCC)
Assay: SMARCA2 degradation analysis by imaging in RKO cells (DC50 A2)
Format: cell-based
Settings: tables 69, 70, 73, 76-78
Please give a number only; it is taken to be in nM.

Here's what some known entries look like.
- Cc1ncsc1-c1ccc([C@H](CC[C@H](C)CCN2CCC(c3ccc4c(c3)n(C3CCCC3)c3nc(=O)c5c(Br)cccc5n43)CC2)NC(=O)[C@@H]2C[C@@H](O)CN2C(=O)[C@@H](NC(=O)C2(F)CC2)C(C)(C)C)cc1 [Compound 42a]: 0.9
- Cc1ncsc1-c1ccc([C@H](COCCN2CCC(c3ccc4c(c3)n(C3CCCC3)c3nc(=O)c5c(Br)cccc5n43)CC2)NC(=O)[C@@H]2C[C@@H](O)CN2C(=O)[C@@H](NC(=O)C2(C#N)CC2)C(C)(C)C)cc1 [Compound 42be]: 12
- Cc1ncsc1-c1ccc([C@H](COCCN2CCC(c3cc4c(cc3OC3CCOC3)n3c5cccc(Br)c5c(=O)nc3n4C3CCCC3)CC2)NC(=O)[C@@H]2C[C@@H](O)CN2C(=O)[C@@H](NC(=O)C2(F)CC2)C(C)(C)C)cc1 (some centres unmarked) [Compound 42az]: 36

[in] Tell me the measured DC50 of COC(=O)C1(C(=O)N[C@H](C(=O)N2C[C@H](O)C[C@H]2C(=O)N[C@@H](COCCN2CCC(c3ccc4c(c3)n(C3CCCC3)c3nc(=O)c5c(Br)cccc5n43)CC2)c2ccc(-c3scnc3C)cc2)C(C)(C)C)CC1 [Compound 42bf] , please.
[out] 8

[in] Tell me the measured DC50 of Cc1ncsc1-c1ccc([C@H](COCCN2CCC(c3ccc4c(c3)n(C3CCCC3)c3nc(=O)c5c(Br)cccc5n43)CC2)NC(=O)[C@@H]2C[C@@H](O)CN2C(=O)[C@@H](NC(=O)C2(C)CC2)C(C)(C)C)cc1 [Compound 42bb] , please.
[out] 17

[in] Tell me the measured DC50 of Cc1ncsc1-c1ccc([C@H](COCCCN2CCC(c3ccc4c(c3)n(C3CCCC3)c3nc(=O)c5c(Br)cccc5n43)CC2)NC(=O)[C@@H]2C[C@@H](O)CN2C(=O)[C@@H](NC(=O)C2(F)CC2)C(C)(C)C)cc1 [Compound 42ak] , please.
[out] 2

[in] Tell me the measured DC50 of CC(C)(C)[C@H](NC(=O)C1(F)CC1)C(=O)N1C[C@H](O)C[C@H]1C(=O)N[C@@H](CCCN1CCC(c2ccc3c(c2)n(C2CCCC2)c2nc(=O)c4c(Br)cccc4n32)CC1)c1ccc(-c2cncs2)cc1 [Compound 42ae] , please.
[out] 1

[in] Tell me the measured DC50 of Cc1ncsc1-c1ccc([C@H](CCCN2CCC(c3ccc4c(c3)n(C3CCCC3)c3nc(=O)c5c(N)cccc5n43)CC2)NC(=O)[C@@H]2C[C@@H](O)CN2C(=O)[C@@H](NC(=O)C2(N3CCCC3)CC2)C(C)(C)C)cc1 [Compound 42bi] , please.
[out] 3

* * *

# maps each entry to its pKd
Target: SMARCA2BD (Homo sapiens)
Construct: the SMARCA2BD prepared at 0.5-0.7 mg/mL in coupling buffer
Sequence (P51531 1373-1493 isoform P51531-2 limits assumed): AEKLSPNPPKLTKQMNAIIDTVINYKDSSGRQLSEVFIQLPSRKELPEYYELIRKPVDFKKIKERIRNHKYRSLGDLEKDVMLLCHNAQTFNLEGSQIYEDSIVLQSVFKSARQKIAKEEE
Assay: Binary SMARCA2 binding affinity determination (A2 binary): SMARCA2 SPR binding experiments
Conditions: binary SMARCA2 binding affinity; SPR at 6° C., pH 8.3; read-out: A2 binary
Description: Binary SMARCA2 Binding Affinity Determination (A2 Binary [nM]): SMARCA2 SPR Binding Experiments SPR experiments were performed on Biacore 8K or T200 instruments (GE Healthcare). Immobilization of target protein was carried out at 25° C. on a CM5 chip using amine coupling (EDC/NHS, GE Healthcare) in HBS-P+ running buffer, containing 2 mM TCEP, pH 7.4. […] The surface was deactivated using 1 M ethanolamine. […]
By convention, pKd is the negative base-10 log of a molar concentration.

Here's what some known entries look like.
* O=c1nc2n(C3CCCC3)c3cc(N4C[C@@H]5C[C@H]4CN5)ccc3n2c2cccc(Br)c12 [Compound 28s] | 7.15
* CC(C)(C)OC(=O)N1CCC(c2ccc3c(c2)n(C2CCCC2)c2nc(=O)c4c(N)cccc4n32)CC1 [Compound 30a] | 6.27

[in] Tell me the measured pKd of O=c1nc2n(C3CCCC3)c3cc(N4CCNCC4)ccc3n2c2cccc(Br)c12 [Compound 28r] , please.
[out] 7.36

[in] Tell me the measured pKd of C[C@@H]1CNCCN1c1ccc2c(c1)n(C1CCCC1)c1nc(=O)c3c(Br)cccc3n21 [Compound 28p] , please.
[out] 7.26

[in] Tell me the measured pKd of N[C@H]1CC[C@H](c2ccc3c(c2)n(C2CCCC2)c2nc(=O)c4c(Br)cccc4n32)CC1 [Compound 28m] , please.
[out] 7.54

[in] Tell me the measured pKd of CCn1c2cc(C3CCNCC3)c(OCCOCCOC)cc2n2c3cccc(Br)c3c(=O)nc12 [Compound 28k] , please.
[out] 7.35

[in] Tell me the measured pKd of CC(C)(C)OC(=O)Oc1cc2c(cc1C1CCN(C(=O)OC(C)(C)C)CC1)n(C1CCCC1)c1nc(=O)c3c(Br)cccc3n21 [Compound 33a] , please.
[out] 6.80
